Known pIC50 of a selection of compounds
- assayedTarget: OXA-45 (Pseudomonas aeruginosa)
- Sequence (Q7WZC7 entry or part of it): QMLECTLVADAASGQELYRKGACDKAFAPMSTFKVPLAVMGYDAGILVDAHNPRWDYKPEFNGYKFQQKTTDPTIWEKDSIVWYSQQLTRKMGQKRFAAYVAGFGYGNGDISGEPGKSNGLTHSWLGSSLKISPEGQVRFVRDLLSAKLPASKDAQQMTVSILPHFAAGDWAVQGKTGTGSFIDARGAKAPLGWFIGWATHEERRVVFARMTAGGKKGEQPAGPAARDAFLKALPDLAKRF
- assayRemarks: β-lactamase inhibition assay with nitrocefin substrate, OXA-45
- Type: biochemical
- Description: Compounds of the present application were evaluated as inhibitors of two Class B β-lactamases (IMP-1 and VIM-2) and two Class D β-lactamases OXA-10 and OXA-45). […] Two methods were used for measurement of β-lactamase activity, based on the use of the substrate nitrocefin. The first was carried out in a cuvette (final volume 1 ml, 25° C.) with the aid of a Cary 5 spectrophotometer, and second was with the use of a Molecular Devices Spectramax 190 96 well plate reader (final volume 100 μl, 30° C.). […]
pIC50: −log10 of the molar value.
measurementLabel: pIC50

- structure: "O=C(N/N=C/c1ccccc1O)c1ccc2ccccc2c1"
  measurementLabel: "pIC50"
  relationSymbol: "="
  recordedNumber: 5.74
- structure: "CC(C)(C)c1ccc(C(=O)N/N=C/c2ccc3c(c2)OCO3)cc1"
  measurementLabel: "pIC50"
  relationSymbol: "<"
  recordedNumber: 5.00
- structure: "O=C(N/N=C/c1ccccc1O)c1cccnc1"
  measurementLabel: "pIC50"
  relationSymbol: "<"
  recordedNumber: 4.00
- structure: "CC(C)(C)c1ccc(C(=O)N/N=C/c2cccc(Oc3ccccc3)c2)cc1"
  measurementLabel: "pIC50"
  relationSymbol: "="
  recordedNumber: 5.37
- structure: "O=C(N/N=C/c1cccc(Oc2ccccc2)c1)c1cc2ccccc2cc1O"
  measurementLabel: "pIC50"
  relationSymbol: "="
  recordedNumber: 6.25
